Source listed as the kinase profiling compilation of Christmann-Franck et al. (2016).

- MEASURED_ON: UniProt O94806
- Sequence (O94806 whole entry, looked up): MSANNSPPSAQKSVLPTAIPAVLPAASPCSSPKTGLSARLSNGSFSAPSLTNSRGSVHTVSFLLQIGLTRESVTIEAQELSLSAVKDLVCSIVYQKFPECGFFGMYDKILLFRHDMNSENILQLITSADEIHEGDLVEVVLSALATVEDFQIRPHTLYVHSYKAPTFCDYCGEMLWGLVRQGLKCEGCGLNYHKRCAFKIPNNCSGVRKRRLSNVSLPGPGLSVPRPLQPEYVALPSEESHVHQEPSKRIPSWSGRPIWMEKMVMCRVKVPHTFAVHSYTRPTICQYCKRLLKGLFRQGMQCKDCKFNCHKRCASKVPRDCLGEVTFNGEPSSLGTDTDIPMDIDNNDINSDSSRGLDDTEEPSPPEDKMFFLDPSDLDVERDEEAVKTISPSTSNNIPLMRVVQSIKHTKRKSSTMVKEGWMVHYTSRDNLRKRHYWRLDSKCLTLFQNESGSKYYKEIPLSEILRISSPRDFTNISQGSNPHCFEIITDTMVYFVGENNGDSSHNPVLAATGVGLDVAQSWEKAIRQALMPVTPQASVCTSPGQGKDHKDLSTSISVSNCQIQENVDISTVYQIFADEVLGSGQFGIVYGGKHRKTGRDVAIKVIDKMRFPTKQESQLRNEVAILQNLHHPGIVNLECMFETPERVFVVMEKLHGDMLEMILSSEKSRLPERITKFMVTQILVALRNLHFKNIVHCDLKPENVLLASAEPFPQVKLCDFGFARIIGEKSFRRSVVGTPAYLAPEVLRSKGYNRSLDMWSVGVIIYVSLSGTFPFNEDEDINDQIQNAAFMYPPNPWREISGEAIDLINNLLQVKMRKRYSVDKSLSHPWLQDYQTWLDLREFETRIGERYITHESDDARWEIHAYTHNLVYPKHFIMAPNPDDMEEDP
- PROTOCOL_SUMMARY: radiometric filter-binding kinase assay, Kinase HotSpot
- ASSAY_CONDITIONS: compound 0.5 µM; ATP 10 µM
So I've got a bunch of compounds here, and I need their residual activity values.
Give bare numbers, in %.

{"SMI": "O=C1NC(=O)C(c2cn(CCCO)c3ncccc23)=C1c1cnccn1", "MEASURED_ON": "UniProt O94806", "residual activity (%)": 78.2}
{"SMI": "O=C1Cc2c([nH]c3ccc(Br)cc23)-c2ccccc2N1", "MEASURED_ON": "UniProt O94806", "residual activity (%)": 95.5}
{"SMI": "COc1cc2ncnc(N3CCN(C(=O)Nc4ccc(Oc5ccccc5)cc4)CC3)c2cc1OC", "MEASURED_ON": "UniProt O94806", "residual activity (%)": 97.5}
{"SMI": "CC(=O)O/N=C1\\C(=C2\\C(=O)Nc3cc(Br)ccc32)Nc2ccccc21", "MEASURED_ON": "UniProt O94806", "residual activity (%)": 84.9}
{"SMI": "O=C1Nc2ccccc2/C1=C1\\Nc2ccccc2\\C1=N/O", "MEASURED_ON": "UniProt O94806", "residual activity (%)": 88.4}

# per-item lookup of residual activity; items listed below
1. COc1ccc(CNC(=O)Nc2ncc([N+](=O)[O-])s2)cc1
2. CC(C)[C@H](CO)Nc1nc(Nc2cc(N)cc(Cl)c2)c2ncn(C(C)C)c2n1
3. Nc1nnc2[nH]c3ccccc3nc1-2
4. CCN(CC)CCCCN1c2ccccc2Oc2ccc(Cl)cc21
5. Cn1nc2c3c(cccc31)C(=O)c1ccccc1-2
6. COc1ccc(OC)c2c(=S)c3ccccc3[nH]c12

1: 93.4; 2: 89.2; 3: 87.3; 4: 97.1; 5: 65.5; 6: 94.1

----------
Provide the recorded residual activity for the entries that follow.
- MEASURED_ON: WNK3 (human)
- PROTOCOL_SUMMARY: radiometric filter-binding kinase assay, Kinase HotSpot
- ASSAY_CONDITIONS: compound 0.5 µM; ATP 10 µM
Give bare numbers, in %.

Below, 3 compounds whose answers are already recorded.
{"COMPOUND": "Nc1nnc2[nH]c3ccccc3nc1-2", "READOUT_TYPE": "residual activity", "REPORTED_MEASUREMENT": 98}
{"COMPOUND": "O=C1NC(=O)C(c2cn(CCCO)c3ncccc23)=C1c1cnccn1", "READOUT_TYPE": "residual activity", "REPORTED_MEASUREMENT": 91.3}
{"COMPOUND": "CCn1cnc2c(Nc3cccc(Cl)c3)nc(N[C@@H]3CCCC[C@@H]3N)nc21", "READOUT_TYPE": "residual activity", "REPORTED_MEASUREMENT": 92}

Provide residual activity values for the following items, in order.
1. Cn1cnc2cc3c(Nc4cccc(Br)c4)ncnc3cc21
2. O=C1Cc2c([nH]c3ccc(Br)cc23)-c2ccccc2N1
3. Nc1nccc(-c2c(-c3ccc(F)cc3)ncn2C2CCNCC2)n1
4. Cc1nc2cc3nc(-c4cccs4)cnc3cc2n1C
5. Oc1ccc(Nc2nc(-c3ccc(Cl)cc3)cs2)cc1

[95.8, 95.5, 95.3, 96.9, 98.7]

Below are some compounds; for each one, tell me its residual activity.
1. O=C1NC(=O)/C(=C\c2ccc3nccnc3c2)S1
2. COc1ccc(CNC(=O)Nc2ncc([N+](=O)[O-])s2)cc1
3. COc1cc2ncnc(N3CCN(C(=O)Nc4ccc(Oc5ccccc5)cc4)CC3)c2cc1OC
4. CN(C)C[C@H]1CCn2c(c(C3=C(c4cn(C)c5ccccc45)C(=O)NC3=O)c3ccccc32)C1

85.8
101
101
100

Provide reported residual activity for each item, in the same order as listed.
1. Cn1sc(=O)n(Cc2ccccc2)c1=O
2. CC(=O)O/N=C1\C(=C2\C(=O)Nc3cc(Br)ccc32)Nc2ccccc21

1: 101; 2: 93

Report residual activity for each item below.
1. O=C(CCCc1ccc(-c2ccccc2F)cc1)Nc1ccc(O)cc1
2. O=C1Nc2ccccc2/C1=C1/Nc2ccccc2/C1=N\OCCC(O)CO (stereo unspecified)
3. CN([C@@H](Cc1ccc(OS(=O)(=O)c2cccc3cnccc23)cc1)C(=O)N1CCN(c2ccccc2)CC1)S(=O)(=O)c1cccc2cnccc12
4. CC(C)c1nn(-c2c(Cl)cccc2Cl)c2nc(Cc3ccc(OCCO)cc3)nc(O)c12
5. COc1cc2ncc(-c3ccccc3)nc2cc1OC
6. O=C(O)/C=C/c1cc(Br)c(Br)c(Br)c1Br

109
79.7
101
96.7
97.5
89.8

// map `O=C1Nc2ccccc2/C1=C1\Nc2ccccc2\C1=N/O` to recorded residual activity (system: WNK3 (human))
89.4

----------
- MEASURED_ON: NEK1 (human) (UniProt Q96PY6)
- Sequence (Q96PY6 whole entry, looked up): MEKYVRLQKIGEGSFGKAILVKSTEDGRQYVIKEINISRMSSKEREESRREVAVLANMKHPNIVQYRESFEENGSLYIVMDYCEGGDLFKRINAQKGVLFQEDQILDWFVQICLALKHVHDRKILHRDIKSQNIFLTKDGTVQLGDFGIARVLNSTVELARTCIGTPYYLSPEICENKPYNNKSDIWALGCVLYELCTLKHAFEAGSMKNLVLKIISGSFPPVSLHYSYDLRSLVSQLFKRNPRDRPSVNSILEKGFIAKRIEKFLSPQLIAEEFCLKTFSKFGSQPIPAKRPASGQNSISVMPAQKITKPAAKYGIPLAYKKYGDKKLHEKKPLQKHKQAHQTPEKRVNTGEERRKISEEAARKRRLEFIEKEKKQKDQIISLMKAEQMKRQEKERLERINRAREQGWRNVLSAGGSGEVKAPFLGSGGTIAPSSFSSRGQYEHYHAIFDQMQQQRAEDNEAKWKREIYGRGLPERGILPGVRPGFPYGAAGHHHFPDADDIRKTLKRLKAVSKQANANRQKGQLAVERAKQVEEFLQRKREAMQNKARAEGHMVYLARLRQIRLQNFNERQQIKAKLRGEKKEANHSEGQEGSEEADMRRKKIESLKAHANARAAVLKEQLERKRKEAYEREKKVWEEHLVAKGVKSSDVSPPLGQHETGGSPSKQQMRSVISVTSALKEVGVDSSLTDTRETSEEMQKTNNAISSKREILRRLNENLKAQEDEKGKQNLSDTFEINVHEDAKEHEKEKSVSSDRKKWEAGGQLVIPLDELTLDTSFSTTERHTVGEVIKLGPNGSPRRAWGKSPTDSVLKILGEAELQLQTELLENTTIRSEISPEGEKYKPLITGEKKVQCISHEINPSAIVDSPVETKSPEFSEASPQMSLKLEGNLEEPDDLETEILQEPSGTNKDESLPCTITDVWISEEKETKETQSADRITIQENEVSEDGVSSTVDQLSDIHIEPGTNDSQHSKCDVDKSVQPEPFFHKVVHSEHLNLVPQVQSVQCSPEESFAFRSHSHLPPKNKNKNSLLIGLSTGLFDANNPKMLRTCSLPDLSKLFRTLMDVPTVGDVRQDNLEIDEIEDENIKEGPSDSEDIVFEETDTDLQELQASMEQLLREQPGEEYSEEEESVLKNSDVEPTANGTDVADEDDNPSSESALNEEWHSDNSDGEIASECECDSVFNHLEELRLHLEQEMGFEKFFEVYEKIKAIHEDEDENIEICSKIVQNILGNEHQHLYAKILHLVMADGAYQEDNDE
- PROTOCOL_SUMMARY: radiometric filter-binding kinase assay, Kinase HotSpot
- ASSAY_CONDITIONS: compound 0.5 µM; ATP 10 µM
READOUT_TYPE: residual activity (%)
Numbers only, in %.

Some compounds with known residual activity results, for comparison:
{"COMPOUND": "CCN(CC)CCCCN1c2ccccc2Oc2ccc(Cl)cc21", "UNITS": "%", "residual activity": 101}
{"COMPOUND": "Cn1cnc2cc3c(Nc4cccc(Br)c4)ncnc3cc21", "UNITS": "%", "residual activity": 97.9}
{"COMPOUND": "Cc1nc2cc3nc(-c4cccs4)cnc3cc2n1C", "UNITS": "%", "residual activity": 94}
{"COMPOUND": "COc1ccc(OC)c2c(=S)c3ccccc3[nH]c12", "UNITS": "%", "residual activity": 102}
{"COMPOUND": "COc1cc2ncnc(N3CCN(C(=O)Nc4ccc(Oc5ccccc5)cc4)CC3)c2cc1OC", "UNITS": "%", "residual activity": 92.6}

Hi team, please reply with residual activity for each item in this list.
1. Oc1ccc(Nc2nc(-c3ccc(Cl)cc3)cs2)cc1
2. O=C(CCCc1ccc(-c2ccccc2F)cc1)Nc1ccc(O)cc1

1. 104
2. 100

----------
- MEASURED_ON: WNK3 (human)
- PROTOCOL_SUMMARY: radiometric filter-binding kinase assay, Kinase HotSpot
- ASSAY_CONDITIONS: compound 0.5 µM; ATP 10 µM
Hi there, I'd appreciate the recorded residual activity for every entry that follows.
One number for each entry, in %.

These recorded examples may help you get a feel for the data.
{"SMI": "CCN(CC)CCCCN1c2ccccc2Oc2ccc(Cl)cc21", "UNITS": "%", "residual activity": 108}
{"SMI": "O=C1NC(=O)C(c2c[nH]c3ccccc23)=C1c1c[nH]c2ccccc12", "UNITS": "%", "residual activity": 98.3}
{"SMI": "COc1ccc(OC)c2c(=S)c3ccccc3[nH]c12", "UNITS": "%", "residual activity": 99.1}
{"SMI": "Cn1nc2c3c(cccc31)C(=O)c1ccccc1-2", "UNITS": "%", "residual activity": 92}
{"SMI": "CC(C)[C@H](CO)Nc1nc(Nc2cc(N)cc(Cl)c2)c2ncn(C(C)C)c2n1", "UNITS": "%", "residual activity": 76.9}

Kindly consider the entry below.
Entry `O=C(Nc1cccc(Nc2cc(Nc3cccc(C(F)(F)F)c3)ncn2)c1)C1CC1` : reported residual activity = ?
100

----------
- MEASURED_ON: NEK7 (human) (UniProt Q8TDX7)
- Sequence (Q8TDX7 whole entry, looked up): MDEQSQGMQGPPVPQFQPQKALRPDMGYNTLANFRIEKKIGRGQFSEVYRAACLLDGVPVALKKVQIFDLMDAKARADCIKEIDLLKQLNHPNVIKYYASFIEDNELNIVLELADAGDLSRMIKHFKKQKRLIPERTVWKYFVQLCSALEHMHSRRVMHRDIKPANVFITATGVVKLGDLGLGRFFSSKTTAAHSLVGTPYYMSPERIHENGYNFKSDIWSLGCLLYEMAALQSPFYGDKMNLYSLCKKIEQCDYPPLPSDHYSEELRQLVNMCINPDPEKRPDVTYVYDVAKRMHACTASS
- PROTOCOL_SUMMARY: radiometric filter-binding kinase assay, Kinase HotSpot
- ASSAY_CONDITIONS: compound 0.5 µM; ATP 10 µM
READOUT_TYPE: residual activity (%)
Give bare numbers, in %.

{"COMPOUND": "O=C1Nc2ccccc2/C1=C1/Nc2ccccc2/C1=N\\OCCC(O)CO (stereo unspecified)", "residual activity [%]": 98.9}

Lab note: each compound below needs its residual activity filled in.
1. COc1cc2ncnc(N3CCN(C(=O)Nc4ccc(Oc5ccccc5)cc4)CC3)c2cc1OC
2. Cn1nc2c3c(cccc31)C(=O)c1ccccc1-2
3. CC(C)c1nn(-c2c(Cl)cccc2Cl)c2nc(Cc3ccc(OCCO)cc3)nc(O)c12
4. Cc1nc2cc3nc(-c4cccs4)cnc3cc2n1C
5. O=C1NC(=O)C(c2c[nH]c3ccccc23)=C1c1c[nH]c2ccccc12
6. Cn1cnc2cc3c(Nc4cccc(Br)c4)ncnc3cc21
7. O=C(Nc1cccc(Nc2cc(Nc3cccc(C(F)(F)F)c3)ncn2)c1)C1CC1
8. O=C1Cc2c([nH]c3ccc(Br)cc23)-c2ccccc2N1

[105, 93.1, 94, 86.5, 99.9, 99.4, 97.8, 94.3]

Consider the following items and state reported residual activity for each.
1. O=C(O)/C=C/c1cc(Br)c(Br)c(Br)c1Br
2. Oc1ccc(Nc2nc(-c3ccc(Cl)cc3)cs2)cc1

1: 98; 2: 106
